- System: S. typhimurium TA102
- protocol text: Bacterial mutagenicity, plate incorporation assay, TA102
- assay setup: 4 μg/plate; mean ± SD
quantity: reversion colonies, TA102
Lab note: jot the number down without any unit.

In: Return reported reversion colonies, TA102. Input compound: `CN1CCN(c2ccc3nc(-c4ccc5nc(-c6ccc(N(CCCl)CCCl)cc6)[nH]c5c4)[nH]c3c2)CC1`
Out: 408

In: Return reported reversion colonies, TA102. Input compound: `CN1CCN(c2ccc3nc(-c4ccc5nc(-c6ccc(N(C)CCCl)cc6)[nH]c5c4)[nH]c3c2)CC1`
Out: 406

In: Return reported reversion colonies, TA102. Input compound: `CN1CCN(c2ccc3nc(-c4ccc5nc(CCCCCCc6ccc(N(CCCl)CCCl)cc6)[nH]c5c4)[nH]c3c2)CC1`
Out: 271

----------
- Test system: S. typhimurium TA98
- protocol text: Bacterial mutagenicity, plate incorporation assay, TA98
- assay setup: 40 μg/plate; mean ± SD
quantity: reversion colonies, TA98
Lab note: jot the number down without any unit.

In: Return reported reversion colonies, TA98. Input compound: CN1CCN(c2ccc3nc(-c4ccc5nc(CCc6ccc(N(CCCl)CCCl)cc6)[nH]c5c4)[nH]c3c2)CC1 [Compound 4]
Out: 65

In: Return reported reversion colonies, TA98. Input compound: CN1CCN(c2ccc3nc(-c4ccc5nc(Cc6ccc(N(CCCl)CCCl)cc6)[nH]c5c4)[nH]c3c2)CC1 [Compound 3]
Out: 86

In: Return reported reversion colonies, TA98. Input compound: CN1CCN(c2ccc3nc(-c4ccc5nc(-c6ccc(N(C)CCCl)cc6)[nH]c5c4)[nH]c3c2)CC1 [Compound 1]
Out: 52

In: Return reported reversion colonies, TA98. Input compound: CN1CCN(c2ccc3nc(-c4ccc5nc(CCCc6ccc(N(CCCl)CCCl)cc6)[nH]c5c4)[nH]c3c2)CC1 [Compound 5]
Out: 62

In: Return reported reversion colonies, TA98. Input compound: CN1CCN(c2ccc3nc(-c4ccc5nc(-c6ccc(N(CCCl)CCCl)cc6)[nH]c5c4)[nH]c3c2)CC1 [Compound 2]
Out: 52

In: Return reported reversion colonies, TA98. Input compound: CN1CCN(c2ccc3nc(-c4ccc5nc(CCCCCCc6ccc(N(CCCl)CCCl)cc6)[nH]c5c4)[nH]c3c2)CC1 [Compound 6]
Out: 69

In: Return reported reversion colonies, TA98. Input compound: CN1CCN(c2ccc3nc(-c4ccc5nc(-c6ccc(O)cc6)[nH]c5c4)[nH]c3c2)CC1 [Pibenzimol, reference compound]
Out: 61

----------
- System: S. typhimurium TA100
- protocol text: Bacterial mutagenicity, plate incorporation assay, TA100
- assay setup: 80 μg/plate; mean ± SD
Output t for records whose reversion colonies, TA100 is lower than 200, f for records at or above 200.

In: Does this compound meet the criterion reversion colonies, TA100 < 200? `CN1CCN(c2ccc3nc(-c4ccc5nc(CCCc6ccc(N(CCCl)CCCl)cc6)[nH]c5c4)[nH]c3c2)CC1`
Out: f

In: Does this compound meet the criterion reversion colonies, TA100 < 200? `CN1CCN(c2ccc3nc(-c4ccc5nc(-c6ccc(N(CCCl)CCCl)cc6)[nH]c5c4)[nH]c3c2)CC1`
Out: t

In: Does this compound meet the criterion reversion colonies, TA100 < 200? `CN1CCN(c2ccc3nc(-c4ccc5nc(-c6ccc(N(C)CCCl)cc6)[nH]c5c4)[nH]c3c2)CC1`
Out: f

In: Does this compound meet the criterion reversion colonies, TA100 < 200? `CN1CCN(c2ccc3nc(-c4ccc5nc(CCc6ccc(N(CCCl)CCCl)cc6)[nH]c5c4)[nH]c3c2)CC1`
Out: f

In: Does this compound meet the criterion reversion colonies, TA100 < 200? `CN1CCN(c2ccc3nc(-c4ccc5nc(CCCCCCc6ccc(N(CCCl)CCCl)cc6)[nH]c5c4)[nH]c3c2)CC1`
Out: t

In: Does this compound meet the criterion reversion colonies, TA100 < 200? `CN1CCN(c2ccc3nc(-c4ccc5nc(Cc6ccc(N(CCCl)CCCl)cc6)[nH]c5c4)[nH]c3c2)CC1`
Out: t

In: Does this compound meet the criterion reversion colonies, TA100 < 200? CN1CCN(c2ccc3nc(-c4ccc5nc(-c6ccc(O)cc6)[nH]c5c4)[nH]c3c2)CC1 [Pibenzimol, reference compound]
Out: t
